Settings: human gut metagenome, 24 h, 2 µM; note: call rule not given here

molecule: CN1C(C(=O)Nc2ccccn2)=C(O)c2sccc2S1(=O)=O
Bacterial Biotransformation: Compound NOT metabolized
--
molecule: Nc1c2c(nc3ccccc13)CCCC2
Bacterial Biotransformation: Compound NOT metabolized
--
molecule: Cc1ccc(S(=O)(=O)NC(=O)NN2CC3CCCC3C2)cc1 (stereo not given) [GLICLAZIDE]
Bacterial Biotransformation: Compound NOT metabolized
--
molecule: CCN(CC)CCNC(C(=O)OCCC(C)C)c1ccccc1.Cl.Cl (stereo not given)
Bacterial Biotransformation: Compound NOT metabolized

* * *

Assay: The drug is tested on WLS-370 corresponding to human gut metagenome with ENA study accession number: PRJEB37062 and ENA sample accession number: ERS12561793 for biotransformation under anaerobic condition. The drug concentrations were measured over 9 timepoints collected between 0 and 24 hours of incubation by liquid-chromatography-coupled mass spectrometry (LC–MS)
Conditions: 2 µM

compound: COc1cc2nc(N3CCN(C(=O)c4ccco4)CC3)nc(N)c2cc1OC
Bacterial Biotransformation: Compound metabolized
--
compound: CN1CCN(C2=Nc3cc(Cl)ccc3Nc3ccccc32)CC1
Bacterial Biotransformation: Compound metabolized
--
compound: OC(Cn1cncn1)(Cn1cncn1)c1ccc(F)cc1F
Bacterial Biotransformation: Compound NOT metabolized
--
compound: NC(CO)(CO)CO.O=C(c1ccccc1)c1ccc2n1CCC2C(=O)O (configuration not stated)
Bacterial Biotransformation: Compound metabolized
--
compound: CC(=O)CC(c1ccccc1)c1c(O)c2ccccc2oc1=O (configuration not stated)
Bacterial Biotransformation: Compound metabolized
--
compound: COc1ccc(CCN(C)CCCC(C#N)(c2ccc(OC)c(OC)c2)C(C)C)cc1OC (configuration not stated)
Bacterial Biotransformation: Compound metabolized
--
compound: CCCC(=O)Nc1ccc(OCC(O)CNC(C)C)c(C(C)=O)c1 (configuration not stated)
Bacterial Biotransformation: Compound NOT metabolized
--
compound: Br.CN(C)CCCC1(c2ccc(F)cc2)OCc2cc(C#N)ccc21 (configuration not stated) [CITALOPRAM HYDROBROMIDE]
Bacterial Biotransformation: Compound metabolized
--
compound: CCCc1nc2c(C)cc(-c3nc4ccccc4n3C)cc2n1Cc1ccc(-c2ccccc2C(=O)O)cc1
Bacterial Biotransformation: Compound metabolized
--
compound: C[C@@H](CO)NC(=O)[C@@H]1C=C2c3cccc4[nH]cc(c34)C[C@H]2N(C)C1.O=C(O)/C=C\C(=O)O [ERGONOVINE MALEATE]
Bacterial Biotransformation: Compound metabolized
--
compound: CCN(CC)CCNC(C(=O)OCCC(C)C)c1ccccc1.Cl.Cl (configuration not stated)
Bacterial Biotransformation: Compound metabolized
--
compound: CN1C[C@H](C(=O)N[C@]2(C)O[C@@]3(O)[C@@H]4CCCN4C(=O)[C@H](Cc4ccccc4)N3C2=O)C=C2c3cccc4[nH]cc(c34)C[C@H]21.CN1C[C@H](C(=O)N[C@]2(C)O[C@@]3(O)[C@@H]4CCCN4C(=O)[C@H](Cc4ccccc4)N3C2=O)C=C2c3cccc4[nH]cc(c34)C[C@H]21.O=C(O)C(O)C(O)C(=O)O [ERGOTAMINE TARTRATE]
Bacterial Biotransformation: Compound metabolized
--
compound: CCC(COC(=O)c1cc(OC)c(OC)c(OC)c1)(c1ccccc1)N(C)C.O=C(O)/C=C\C(=O)O (configuration not stated)
Bacterial Biotransformation: Compound NOT metabolized
--
compound: CCCc1nn(C)c2c(=O)[nH]c(-c3cc(S(=O)(=O)N4CCN(C)CC4)ccc3OCC)nc12.O=C(O)CC(O)(CC(=O)O)C(=O)O [SILDENAFIL CITRATE]
Bacterial Biotransformation: Compound NOT metabolized
--
compound: CN1C(=O)CC(C)(c2ccccc2)C1=O (configuration not stated) [METHSUXIMIDE]
Bacterial Biotransformation: Compound NOT metabolized
--
compound: Cc1ccc(-c2nc3ccc(C)cn3c2CC(=O)N(C)C)cc1
Bacterial Biotransformation: Compound NOT metabolized
--
compound: CN/C(=N/CCSCc1nc[nH]c1C)NC#N
Bacterial Biotransformation: Compound NOT metabolized
